- Protocol Text: Inhibition of ATPase activity of myosin 2 in mouse C2C12 myoblast assessed as release of inorganic phosphates
Reported Property: pIC50
Numbers only, as −log10 of the molar value.

Entry `c1nc2c(NC3CCCCC3)nc(Nc3ccc(N4CCOCC4)cc3)nc2[nH]1` — recorded pIC50 = 8.00

====

- Assay System: Dual specificity mitogen-activated protein kinase kinase 1 (Mus musculus)
- Sequence (P31938 whole entry): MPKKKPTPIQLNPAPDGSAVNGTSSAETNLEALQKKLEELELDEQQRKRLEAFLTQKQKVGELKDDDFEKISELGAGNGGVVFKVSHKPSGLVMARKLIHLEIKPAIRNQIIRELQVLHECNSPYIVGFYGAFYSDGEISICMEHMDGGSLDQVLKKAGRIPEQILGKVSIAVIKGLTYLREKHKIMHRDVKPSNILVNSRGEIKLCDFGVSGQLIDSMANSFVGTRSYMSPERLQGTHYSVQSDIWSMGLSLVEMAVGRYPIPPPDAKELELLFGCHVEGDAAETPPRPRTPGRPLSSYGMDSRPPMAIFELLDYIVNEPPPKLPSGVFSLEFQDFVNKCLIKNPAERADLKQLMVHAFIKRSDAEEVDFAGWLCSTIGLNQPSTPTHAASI
- Protocol Text: Inhibition of MEK1 in mouse C2C12 by ERK2 phosphorylation assay
Reported Property: IC50 (nM)
Give bare numbers, in nM.

Entry `c1nc2c(NC3CCCCC3)nc(Nc3ccc(N4CCOCC4)cc3)nc2[nH]1` — recorded IC50 = 8
